System: HEK-293T
METHOD_SUMMARY: Multiplex assay against HEK293T
Assay type: toxicity, cell-based
TEST_CONDITIONS: human, 12 h, 1 µM, compound concentration 1 uM, replicate 1
MEASUREMENT_NAME: Population Normal (%)
Include the unit after the number when you answer.

Answered examples (5):
1. CN1CCN(C(=O)C(C)(C)c2ccc(C(=O)Nc3cn4cc(-c5cc(C(C)(C)C)cc(C(C)(C)C)c5)ccc4n3)cc2)CC1; 87%
2. CN(C)C(=O)C(CCN1CCC(O)(c2ccc(Cl)cc2)CC1)(c1ccccc1)c1ccccc1.Cl [LOPERAMIDE HYDROCHLORIDE]; 83%
3. CN1C2CCC1CC(OC(c1ccc(F)cc1)c1ccc(F)cc1)C2.Cl (stereo not drawn); 87%
4. Cc1ccc2nc(NCCN)c3ncc(C)n3c2c1.O=C(O)C(F)(F)F.O=C(O)C(F)(F)F; 86%
5. COc1cc2ncnc(Nc3ccc(F)c(Cl)c3)c2cc1NC(=O)/C=C/CN1CCCCC1 [DACOMITINIB ANHYDROUS]; 75%

Enquiry: What does the data say about its Population Normal (%)? Entry: COC(=N)c1nc2ccc3ncnc(Nc4ccc(OC)cc4F)c3c2s1
Return: 78%

Enquiry: Repeat for the following molecule: CNc1cc(Oc2cc(C(=O)Nc3cc(N4CCN(C)CC4)cc(C(F)(F)F)c3)ccc2C)ncn1
Return: 79%

Enquiry: Repeat for the following molecule: COc1cccc2cc(-c3nc([C@H]4CC[C@H](C(=O)O)CC4)n4ncnc(N)c34)[nH]c12
Return: 83%
